Source: PubChem BioAssay AID2060496

# System: 276233-004-R-J1-PDC complex spheroid viability
# ASSAY NOTES: Anticancer human tumor 276233-004-R-J1-PDC patient-derived colon adenocarcinoma cell line growth inhibition [GQUAD]
# STUDY CONDITIONS: second compound 3.16 µM; first compound 1 µM; active compounds read low
MEASUREMENT LABEL: viability, T/C (%)
Answers are plain numbers, in %.

INSERT INTO measurements (compound, unit_text, value_observed) VALUES
  ('COc1cccc2c1C(=O)c1c(O)c3c(c(O)c1C2=O)CC(O)(C(=O)CO)CC3OC1CC(N)C(O)C(C)O1 (stereo not drawn) + Cc1[nH]c2ccc(F)cc2c1-c1nc2c3cccnc3c3ncccc3c2[nH]1', '%', 41.4),
  ('O=C(c1cc(Cc2n[nH]c(=O)c3ccccc23)ccc1F)N1CCN(C(=O)C2CC2)CC1 + CN(C)c1ccc(Nc2c3ccc(NC(=O)CCN4CCCC4)cc3nc3cc(NC(=O)CCN4CCCC4)ccc23)cc1', '%', 55.6);

With those in mind, consider the next compound.
Ask: Write down viability, T/C measured for item CCCS(=O)(=O)Nc1ccc(F)c(C(=O)c2c[nH]c3ncc(-c4ccc(Cl)cc4)cc23)c1F + CN(C)c1ccc(Nc2c3ccc(NC(=O)CCN4CCCC4)cc3nc3cc(NC(=O)CCN4CCCC4)ccc23)cc1
Reply: 46.1

====

# Tested on: 276233-004-R-J1-PDC complex spheroid viability
# ASSAY NOTES: Anticancer human tumor 276233-004-R-J1-PDC cell line growth inhibition [GQUAD];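 further: spheroids exposed to drugs for seven days; 100% = DMSO vehicle control viability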
# STUDY CONDITIONS: second compound 0.0316 µM; first compound 0.1 µM; active compounds read low
MEASUREMENT LABEL: viability, T/C

Here is how some compounds turned out for viability, T/C.
INSERT INTO results (compound, measurement_label, value_observed) VALUES
  ('C=CCn1c(=O)c2cnc(Nc3ccc(N4CCN(C)CC4)cc3)nc2n1-c1cccc(C(C)(C)O)n1 + Cc1cnc(CNC(=O)c2c(=O)c3ccc(N4CCCN(C)CC4)nc3n3c2sc2ccccc23)cn1', 'viability, T/C', '70.5%'),
  ('O=c1[nH]cc(F)c(=O)[nH]1 + Cc1cnc(CNC(=O)c2c(=O)c3ccc(N4CCCN(C)CC4)nc3n3c2sc2ccccc23)cn1', 'viability, T/C', '82.2%');

For each of the compounds below, note its viability, T/C.
1. CC1COCCN1c1cc(C2(S(C)(=N)=O)CC2)nc(-c2ccnc3[nH]ccc23)n1 (stereo unspecified) + Cc1[nH]c2ccc(F)cc2c1-c1nc2c3cccnc3c3ncccc3c2[nH]1
2. C#Cc1c(F)ccc2cc(O)cc(-c3ncc4c(N5CC6CCC(C5)N6)nc(OCC56CCCN5CC(F)C6)nc4c3F)c12 (stereo unspecified) + Cc1cnc(CNC(=O)c2c(=O)c3ccc(N4CCCN(C)CC4)nc3n3c2sc2ccccc23)cn1
3. COc1ncnc(C2CC2)c1-c1ncc2cnn(Cc3ccc(-c4nc(C(F)(F)F)cn4C(C)C)cc3)c2n1 + Cc1cnc(CNC(=O)c2c(=O)c3ccc(N4CCCN(C)CC4)nc3n3c2sc2ccccc23)cn1
4. O=C(NO)c1cnc(N2CCN(S(=O)(=O)c3ccc4ccccc4c3)CC2)nc1 + CN(C)c1ccc(Nc2c3ccc(NC(=O)CCN4CCCC4)cc3nc3cc(NC(=O)CCN4CCCC4)ccc23)cc1
5. CC1COCCN1c1cc(-c2ccnn2C)c2ccnc(-c3ccn[nH]3)c2n1 (stereo unspecified) + Cc1[nH]c2ccc(F)cc2c1-c1nc2c3cccnc3c3ncccc3c2[nH]1
6. Cc1cccc(N(C)C(=O)C2C(O)CCN2c2nc(C)cc(C(F)(F)F)c2C#N)c1 (stereo unspecified) + Cc1cnc(CNC(=O)c2c(=O)c3ccc(N4CCCN(C)CC4)nc3n3c2sc2ccccc23)cn1
7. CCCS(=O)(=O)Nc1ccc(F)c(C(=O)c2c[nH]c3ncc(-c4ccc(Cl)cc4)cc23)c1F + Cc1[nH]c2ccc(F)cc2c1-c1nc2c3cccnc3c3ncccc3c2[nH]1

Reply:
83%
86.6%
77.1%
110%
69.4%
75.8%
82.8%

For each of the compounds below, note its viability, T/C.
1. CCCS(=O)(=O)Nc1ccc(F)c(C(=O)c2c[nH]c3ncc(-c4ccc(Cl)cc4)cc23)c1F + Cc1cnc(CNC(=O)c2c(=O)c3ccc(N4CCCN(C)CC4)nc3n3c2sc2ccccc23)cn1
2. COc1ncnc(C2CC2)c1-c1ncc2cnn(Cc3ccc(-c4nc(C(F)(F)F)cn4C(C)C)cc3)c2n1 + Cc1[nH]c2ccc(F)cc2c1-c1nc2c3cccnc3c3ncccc3c2[nH]1
3. C=CCn1c(=O)c2cnc(Nc3ccc(N4CCN(C)CC4)cc3)nc2n1-c1cccc(C(C)(C)O)n1 + Cc1[nH]c2ccc(F)cc2c1-c1nc2c3cccnc3c3ncccc3c2[nH]1
4. CC(C)(O)C1CCC(Nc2ccc3ncc(-c4cccc(C(F)(F)F)c4)n3n2)CC1 (stereo unspecified) + CN(C)c1ccc(Nc2c3ccc(NC(=O)CCN4CCCC4)cc3nc3cc(NC(=O)CCN4CCCC4)ccc23)cc1
5. CC(=O)O[C@H]1C(=O)[C@@]2(C)[C@H]([C@H](OC(=O)c3ccccc3)[C@]3(O)C[C@H](OC(=O)[C@H](O)[C@@H](NC(=O)c4ccccc4)c4ccccc4)C(C)=C1C3(C)C)[C@]1(OC(C)=O)CO[C@@H]1C[C@@H]2O + Cc1[nH]c2ccc(F)cc2c1-c1nc2c3cccnc3c3ncccc3c2[nH]1
6. CCCS(=O)(=O)Nc1ccc(F)c(C(=O)c2c[nH]c3ncc(-c4ccc(Cl)cc4)cc23)c1F + CN(C)c1ccc(Nc2c3ccc(NC(=O)CCN4CCCC4)cc3nc3cc(NC(=O)CCN4CCCC4)ccc23)cc1
7. O=C(NO)c1cnc(N2CCN(S(=O)(=O)c3ccc4ccccc4c3)CC2)nc1 + Cc1[nH]c2ccc(F)cc2c1-c1nc2c3cccnc3c3ncccc3c2[nH]1

Reply:
93.7%
81.3%
86.5%
84.4%
72%
83.2%
86%

For each of the compounds below, note its viability, T/C.
1. CC(C)n1c(=O)n(C)c2cnc3cc(F)c(-c4ccc(OCCCN5CCCCC5)nc4)cc3c21 + Cc1[nH]c2ccc(F)cc2c1-c1nc2c3cccnc3c3ncccc3c2[nH]1
2. CC1COCCN1c1cc(-c2ccnn2C)c2ccnc(-c3ccn[nH]3)c2n1 (stereo unspecified) + Cc1cnc(CNC(=O)c2c(=O)c3ccc(N4CCCN(C)CC4)nc3n3c2sc2ccccc23)cn1
3. CC(C)(O)C1CCC(Nc2ccc3ncc(-c4cccc(C(F)(F)F)c4)n3n2)CC1 (stereo unspecified) + Cc1cnc(CNC(=O)c2c(=O)c3ccc(N4CCCN(C)CC4)nc3n3c2sc2ccccc23)cn1
4. Nc1ccn(C2OC(CO)C(O)C2(F)F)c(=O)n1 (stereo unspecified) + Cc1[nH]c2ccc(F)cc2c1-c1nc2c3cccnc3c3ncccc3c2[nH]1

Reply:
["86.7%", "57.5%", "79.8%", "74.9%"]

Ask: Write down viability, T/C measured for item COc1cc(C2c3cc4c(cc3C(OC3OC5COC(C)OC5C(O)C3O)C3COC(=O)C23)OCO4)cc(OC)c1O (stereo unspecified) + CN(C)c1ccc(Nc2c3ccc(NC(=O)CCN4CCCC4)cc3nc3cc(NC(=O)CCN4CCCC4)ccc23)cc1
Reply: 106%

====

# Test system: 276233-004-R-J1-PDC complex spheroid viability
# ASSAY NOTES: Anticancer human tumor 276233-004-R-J1-PDC cell line growth inhibition [GQUAD];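 further: spheroids exposed to drugs for seven days; 100% = DMSO vehicle control viability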
# STUDY CONDITIONS: second compound 0.0316 µM; first compound 0.00316 µM; active compounds read low
Strictly below 80% in viability, T/C: yes. Otherwise: no.

INSERT INTO measurements (compound, category) VALUES
  ('Cn1ncnc1[C@H]1c2n[nH]c(=O)c3cc(F)cc(c23)N[C@@H]1c1ccc(F)cc1 + CN(C)c1ccc(Nc2c3ccc(NC(=O)CCN4CCCC4)cc3nc3cc(NC(=O)CCN4CCCC4)ccc23)cc1', 'no'),
  ('CC[C@@]1(O)C(=O)OCc2c1cc1n(c2=O)Cc2cc3c(CN(C)C)c(O)ccc3nc2-1 + CN(C)c1ccc(Nc2c3ccc(NC(=O)CCN4CCCC4)cc3nc3cc(NC(=O)CCN4CCCC4)ccc23)cc1', 'no'),
  ('CCc1c2c(nc3ccc(O)cc13)-c1cc3c(c(=O)n1C2)COC(=O)[C@]3(O)CC + Cc1[nH]c2ccc(F)cc2c1-c1nc2c3cccnc3c3ncccc3c2[nH]1', 'yes');

Please look at the following compound next.
Ask: For Cc1[nH]c2ccccc2c1CCNCc1ccc(/C=C/C(=O)NO)cc1 + Cc1[nH]c2ccc(F)cc2c1-c1nc2c3cccnc3c3ncccc3c2[nH]1 , is the recorded viability, T/C below the cut-off of 80%?
Reply: no

====

Provide the reported viability, T/C of each item.
# Test system: 276233-004-R-J1-PDC complex spheroid viability
# ASSAY NOTES: Anticancer human tumor 276233-004-R-J1-PDC cell line growth inhibition [GQUAD];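 further: spheroids exposed to drugs for seven days; 100% = DMSO vehicle control viability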
# STUDY CONDITIONS: second compound 10 µM; first compound 0.1 µM; active compounds read low

INSERT INTO assay_data (molecule, measurement_label, value_observed) VALUES
  ('CC(C)n1c(=O)n(C)c2cnc3cc(F)c(-c4ccc(OCCCN5CCCCC5)nc4)cc3c21 + CN(C)c1ccc(Nc2c3ccc(NC(=O)CCN4CCCC4)cc3nc3cc(NC(=O)CCN4CCCC4)ccc23)cc1', 'viability, T/C', '54%');

For each of the molecules below, note its viability, T/C.
1. O=c1[nH]cc(F)c(=O)[nH]1 + Cc1cnc(CNC(=O)c2c(=O)c3ccc(N4CCCN(C)CC4)nc3n3c2sc2ccccc23)cn1
2. C=CCn1c(=O)c2cnc(Nc3ccc(N4CCN(C)CC4)cc3)nc2n1-c1cccc(C(C)(C)O)n1 + CN(C)c1ccc(Nc2c3ccc(NC(=O)CCN4CCCC4)cc3nc3cc(NC(=O)CCN4CCCC4)ccc23)cc1
3. COc1cccc2c1C(=O)c1c(O)c3c(c(O)c1C2=O)CC(O)(C(=O)CO)CC3OC1CC(N)C(O)C(C)O1 (stereo not given) + Cc1[nH]c2ccc(F)cc2c1-c1nc2c3cccnc3c3ncccc3c2[nH]1

Reply:
1. 79.3%
2. 45.5%
3. 44.4%

For each of the molecules below, note its viability, T/C.
1. Nc1ccn(C2OC(CO)C(O)C2(F)F)c(=O)n1 (stereo not given) + CN(C)c1ccc(Nc2c3ccc(NC(=O)CCN4CCCC4)cc3nc3cc(NC(=O)CCN4CCCC4)ccc23)cc1
2. COc1ccc([C@@H](O)c2cc(-c3ncnc4cc(N5CCOCC5)ccc34)c(F)cc2Cl)nn1 + Cc1cnc(CNC(=O)c2c(=O)c3ccc(N4CCCN(C)CC4)nc3n3c2sc2ccccc23)cn1
3. C=CC(=O)N1CCN(c2nc(=O)n(-c3c(C)ccnc3C(C)C)c3nc(-c4c(O)cccc4F)c(F)cc23)C(C)C1 (stereo not given) + CN(C)c1ccc(Nc2c3ccc(NC(=O)CCN4CCCC4)cc3nc3cc(NC(=O)CCN4CCCC4)ccc23)cc1
4. O=C(c1cc(Cc2n[nH]c(=O)c3ccccc23)ccc1F)N1CCN(C(=O)C2CC2)CC1 + CN(C)c1ccc(Nc2c3ccc(NC(=O)CCN4CCCC4)cc3nc3cc(NC(=O)CCN4CCCC4)ccc23)cc1
5. Cc1cccc(N(C)C(=O)C2C(O)CCN2c2nc(C)cc(C(F)(F)F)c2C#N)c1 (stereo not given) + CN(C)c1ccc(Nc2c3ccc(NC(=O)CCN4CCCC4)cc3nc3cc(NC(=O)CCN4CCCC4)ccc23)cc1
6. O=c1[nH]cc(F)c(=O)[nH]1 + Cc1[nH]c2ccc(F)cc2c1-c1nc2c3cccnc3c3ncccc3c2[nH]1

Reply:
1: 57.9%; 2: 58.1%; 3: 55.1%; 4: 63.3%; 5: 51.5%; 6: 46.7%
